System: NCI/ADR-RES
Assay: NCI tumour cell line growth inhibition, 48 h
Calls of active or inactive are those of the source. Rule as the data show it: active = GI50 up to about 1.1 µM and inactive = higher.
QUANTITY_KIND: GI50

Please review the following examples before continuing.
| COMPOUND | GI50 |
| --- | --- |
| COc1cc(C(=O)NC2CCc3cc(OC)c(OC)c(OC)c3-c3ccc(OC)c(=O)cc32)cc(OC)c1OC (stereo not given) | 18.2 µM (inactive) |
| CCOC(=O)CCC(NC(=O)c1ccc(CNc2nc3cc(N)cc(N)c3nc2-c2ccccc2)cc1)C(=O)OCC (stereo not given) | > 100 µM (inactive) |
| CCOC(CCNCC(OCC)OCC)OCC | > 10 µM (inactive) |
| CCOC1NC(=O)Oc2cc3ccccc3cc21 (stereo not given) | 99.5 µM (inactive) |

With those in mind, consider the next compound.
// Input: CC(=O)[C@H]1CCC2[C@@H]3CC=C4C(O)C(OS(=O)(=O)O)CC[C@]4(C)C3CC[C@@]21C (stereo not given in full) . Output its GI50 only.
> 100 µM (inactive)
